Listing of recorded growth AUC normalised to DMSO control by entry.
System: Vibrio cholerae
Test: growth AUC normalised to DMSO control (fraction of control); higher = less growth inhibition, active = hit call of the paper
Settings: 20 µM
Counter-ions that a name gives are not always drawn.

# example entries with known answers
INSERT INTO results (compound, system_name, measured_value) VALUES
  ('CCCN1C[C@H](CSC)C[C@@H]2c3cccc4[nH]cc(c34)C[C@H]21 [Pergolide mesylate]', 'Vibrio cholerae', '0.956 (inactive)'),
  ('CN1[C@@H]2C[C@@H](OC(=O)[C@H](CO)c3ccccc3)C[C@H]1[C@@H]1O[C@@H]12 [Scopolamine hydrochloride]', 'Vibrio cholerae', '1.06 (inactive)'),
  ('O=[N+]([O-])O[C@H]1CO[C@H]2[C@@H]1OC[C@H]2O[N+](=O)[O-] [Isosorbide dinitrate]', 'Vibrio cholerae', '1.09 (inactive)'),
  ('C=C(C)[C@@H]1[C@H]2OC(=O)[C@@H]1[C@]1(O)C[C@H]3O[C@]34C(=O)O[C@H]2[C@]14C', 'Vibrio cholerae', '1 (inactive)'),
  ('NCC(CC(=O)O)c1ccc(Cl)cc1 (stereo not drawn)', 'Vibrio cholerae', '1.01 (inactive)'),
  ('CCN[C@@H](C)Cc1cccc(C(F)(F)F)c1 [Dexfenfluramine hydrochloride]', 'Vibrio cholerae', '1.02 (inactive)');

Problem: Form field: reported growth AUC normalised to DMSO control of C=CCC1(CC(C)C)C(=O)NC(=O)NC1=O
Result: 1.02 (inactive)

Problem: Next entry: CN(C)C(=O)Oc1ccc[n+](C)c1 [Pyridostigmine iodide]
Result: 1.02 (inactive)

Problem: Now give it for NCC(O)c1ccc(O)cc1 (stereo not drawn) [Octopamine hydrochloride] too.
Result: 1.01 (inactive)

Problem: Continue with NC(=O)CN1CCCC1=O
Result: 0.992 (inactive)

Problem: Consider next the compound S=C(NC1CCCCC1)N1CCC(c2cnc[nH]2)CC1 [Thioperamide maleate] in the same way.
Result: 0.97 (inactive)

Problem: Next: CCC1(C)CC(=O)NC(=O)C1 [Bemegride]
Result: 1.05 (inactive)

Problem: Same lookup for O=C(NCNC(=O)NC1C(=O)NC(=O)N1CO)NC1C(=O)NC(=O)N1CO (stereo not drawn) , please.
Result: 1.01 (inactive)

* * *

Test system: Vibrio cholerae
Assay: growth AUC normalised to DMSO control (fraction of control); higher = less growth inhibition, active = hit call of the paper
Settings: 20 µM
Counter-ions that a name gives are not always drawn.
Form field: growth AUC normalised to DMSO control (one value per entry).

INSERT INTO measurements (compound, measured_value) VALUES
  ('C[C@]12CCC(=O)C=C1CC[C@@H]1[C@@H]2C(=O)C[C@]2(C)C(=O)CC[C@@H]12', '1 (inactive)'),
  ('NC(=O)C[S+]([O-])C(c1ccccc1)c1ccccc1 (stereo not drawn)', '0.998 (inactive)'),
  ('Oc1cc(Cl)ccc1Oc1ccc(Cl)cc1Cl', '0.184 (active)');

Problem: Tell me the measured growth AUC normalised to DMSO control of CC(C)C[C@H]1C(=O)N2CCC[C@H]2[C@]2(O)O[C@](NC(=O)[C@@H]3C=C4c5cccc6[nH]c(Br)c(c56)C[C@H]4N(C)C3)(C(C)C)C(=O)N12 [Bromocryptine mesylate] , please.
Result: 0.996 (inactive)

Problem: Same thing, different compound: CO[C@]12C[C@@H](COC(=O)c3cncc(Br)c3)CN(C)[C@@H]1Cc1cn(C)c3cccc2c13
Result: 0.996 (inactive)

Problem: And then O=c1[nH]c2ccccc2n1C1CCN(CCCC(c2ccc(F)cc2)c2ccc(F)cc2)CC1 [Pimozide] , what is it?
Result: 1.07 (inactive)

Problem: For CC(Cc1ccccc1)NCCC(c1ccccc1)c1ccccc1 (stereo not drawn) [Prenylamine lactate] then?
Result: 1.02 (inactive)

Problem: And the next one, CN1CCC2(C)c3cc(O)ccc3N(C)C12 (single isomer, unassigned; (-)) [(-) Eseroline fumarate salt] ?
Result: 0.995 (inactive)
